- target-entity: LK35.2-hPD-L1 cells / PE-labeled PD-1-Ig (Homo sapiens, UniProt Q9NZQ7)
- Construct: expressed in transfected cells; host or cells: LK35.2 mouse B cell line
- Sequence (Q9NZQ7 19-290): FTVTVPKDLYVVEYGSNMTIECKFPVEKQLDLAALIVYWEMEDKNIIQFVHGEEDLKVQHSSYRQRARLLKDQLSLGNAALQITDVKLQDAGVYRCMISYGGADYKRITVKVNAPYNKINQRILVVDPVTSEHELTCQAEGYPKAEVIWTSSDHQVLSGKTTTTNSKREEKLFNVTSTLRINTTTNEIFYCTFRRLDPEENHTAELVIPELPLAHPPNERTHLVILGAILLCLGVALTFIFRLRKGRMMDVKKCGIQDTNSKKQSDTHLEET
- method: LK35.2-hPD-L1 cell binding high-content screening assay
- Assay type: cell-based
- assay-conditions: cell binding assay, cell line not given; cluster symbol; read-out: CBA IC50 cluster
Positions of bridges follow the written chain, without caps; N, C: chain ends. Non-standard residues stand in square brackets, D forms with d. Residues, ends and D or L forms follow the SMILES beside them. ξ: configuration not given here. NMe2Nal = CN[C@@H](Cc1ccc2ccccc2c1)C(=O)O; 2Nal = N[C@@H](Cc1ccc2ccccc2c1)C(=O)O; NMeF = CN[C@@H](Cc1ccccc1)C(=O)O; Ile(3ξ) = CCC(C)[C@H](N)C(=O)O; NMeNle = CCCC[C@H](NC)C(=O)O; NMeA = CN[C@@H](C)C(=O)O; Orn = NCCC[C@H](N)C(=O)O; Dab = NCC[C@H](N)C(=O)O; ξC = NC(CS)C(=O)O; Sar = CNCC(=O)O
quantity: IC50

compound | target-entity | test-value
CCCC[C@H]1C(=O)N(C)[C@@H](CCCC)C(=O)N[C@@H](CCCNC(=N)N)C(=O)N[C@H](C(=O)NCC(N)=O)CSCC(=O)N[C@@H](Cc2ccccc2)C(=O)N(C)[C@@H](C)C(=O)N[C@@H](CC(N)=O)C(=O)N2CCC[C@H]2C(=O)N[C@@H](Cc2cnc[nH]2)C(=O)N[C@@H](C(C)CC)C(=O)N(C)CC(=O)N[C@@H](Cc2c[nH]c3ccccc23)C(=O)N[C@@H](CO)C(=O)N[C@@H](Cc2c[nH]c3ccccc23)C(=O)N1C (stereo partly drawn) [Example 6011] ({CH2CO}-F[NMeA]NPH[Ile(3ξ)][Sar]WSW[NMeNle][NMeNle]RCG-NH2; thioether N-14) | LK35.2-hPD-L1 cells / PE-labeled PD-1-Ig (Homo sapiens, UniProt Q9NZQ7) | 4.78 to 72.9 nM

Complete the entry with IC50 for `CCCC[C@H]1C(=O)N(C)[C@@H](CCCC)C(=O)N[C@@H](CCCN)C(=O)N[C@H](C(=O)NCC(N)=O)CSCC(=O)N[C@@H](Cc2ccc(O)cc2)C(=O)N(C)[C@@H](C)C(=O)N[C@@H](CC(N)=O)C(=O)N2CCC[C@H]2C(=O)N[C@@H](CN)C(=O)N[C@@H](CC(C)C)C(=O)N2C[C@H](Cc3ccc(F)cc3)C[C@H]2C(=O)N[C@@H](Cc2c[nH]c3ccccc23)C(=O)N[C@@H](CO)C(=O)N[C@@H](Cc2c[nH]c3ccccc23)C(=O)N1C` 0.158 to 4.71 nM

Complete the entry with IC50 for CCCC[C@H]1C(=O)N(C)CC(=O)N[C@@H](CC(=O)O)C(=O)N[C@@H](C(C)C)C(=O)N(C)[C@@H](Cc2ccccc2)C(=O)N[C@@H](Cc2ccc3ccccc3c2)C(=O)N(C)CC(=O)N[C@@H](Cc2c[nH]c3ccccc23)C(=O)N[C@@H](Cc2ccc(O)cc2)C(=O)N[C@@H](CC(C)C)C(=O)N[C@H](C(=O)NCC(N)=O)CSCC(=O)N[C@@H](Cc2ccccc2)C(=O)N(C)[C@@H](Cc2ccccc2)C(=O)N1C [Example 3535] ({CH2CO}-F[NMeF][NMeNle][Sar]DV[NMeF][2Nal][Sar]WYLCG-NH2; thioether N-13) 4.78 to 72.9 nM

Complete the entry with IC50 for CCCC[C@H]1C(=O)N(C)[C@@H](CCCC)C(=O)N[C@@H](CCN)C(=O)N[C@H](C(=O)NCC(N)=O)CSCC(=O)N[C@@H](Cc2ccccc2)C(=O)N(C)[C@@H](C)C(=O)N[C@@H](CC(N)=O)C(=O)N2CCC[C@H]2C(=O)N[C@@H](Cc2cnc[nH]2)C(=O)N[C@@H](CC(C)C)C(=O)N(C)CC(=O)N[C@@H](Cc2c[nH]c3ccccc23)C(=O)N[C@@H](CO)C(=O)N[C@@H](Cc2c[nH]c3ccccc23)C(=O)N1C [Example 5006] ({CH2CO}-F[NMeA]NPHL[Sar]WSW[NMeNle][NMeNle][Dab]CG-NH2; thioether N-14) 4.78 to 72.9 nM

Complete the entry with IC50 for CCCC[C@H]1C(=O)N(C)CC(=O)N[C@@H](CC(N)=O)C(=O)N[C@@H](C(C)C)C(=O)N(C)[C@@H](Cc2ccccc2)C(=O)N[C@@H](Cc2ccc(O)cc2)C(=O)N(C)CC(=O)N[C@@H](Cc2c[nH]c3ccccc23)C(=O)N[C@@H](Cc2ccc(O)cc2)C(=O)N[C@@H](CCCN)C(=O)N[C@H](C(=O)NCC(N)=O)CSCC(=O)N[C@@H](Cc2ccccc2)C(=O)N(C)[C@@H](Cc2ccc3ccccc3c2)C(=O)N1C [Example 3603] ({CH2CO}-F[NMe2Nal][NMeNle][Sar]NV[NMeF]Y[Sar]WY[Orn]CG-NH2; thioether N-13) 4.78 to 72.9 nM

Complete the entry with IC50 for CCCC[C@H]1C(=O)N(C)[C@@H](C)C(=O)N[C@@H](CCCNC(=N)N)C(=O)NC(C(=O)NCC(N)=O)CSCC(=O)N[C@@H](Cc2ccc(O)cc2)C(=O)N(C)[C@@H](C)C(=O)N[C@@H](CC(N)=O)C(=O)N2CCC[C@H]2C(=O)N[C@@H](CO)C(=O)N[C@@H](CC(C)C)C(=O)N2CCC[C@H]2C(=O)N[C@@H](Cc2c[nH]c3ccccc23)C(=O)N[C@@H](CO)C(=O)N[C@@H](Cc2c[nH]c3ccccc23)C(=O)N1C (stereo partly drawn) [Example 9110] ({CH2CO}-Y[NMeA]NPSLPWSW[NMeNle][NMeA]R[ξC]G-NH2; thioether N-14) 4.78 to 72.9 nM
